assay.endpoint: melting point
Put down the number, then write its unit next to it.

Take a look at these entries with their results.
compound | melting point
CCN(CC)C(=O)n1cnc(S(=O)(=O)c2c(C)cc(C)cc2C)n1 | 115 °C
CCCCC(C)C | -118 °C
C#CCCCCCCC | -50 °C
CC1=NOC(=O)/C1=N\Nc1ccccc1Cl | 168 °C
CN1CCN(C2=Nc3ccccc3Oc3ccc(Cl)cc32)CC1 | 110 °C
O=C(O)c1cccc([N+](=O)[O-])c1Cl | 184 °C
CC(N)(CO)CO | 110 °C
C[C@@H]1C(=O)OC[C@H]2[C@@H]1CC[C@@H]2C | 60.5 °C

Quick request: melting point for each listed item, please.
1. Clc1cc(Cl)c(-c2ccccc2)cc1Cl
2. c1ccc(SSc2ccccc2)cc1
3. O=C(C(=O)c1ccco1)c1ccco1
4. COc1cc(OC)nc(N=C(O)NS(=O)(=O)Nc2ccccc2C(=O)C2CC2)n1

OUTPUT:
1. 76.3 °C
2. 62 °C
3. 164 °C
4. 162 °C

All values here come from the OPERA property sets (Mansouri et al. 2018).
